ASSAY PROTOCOL: chemical recovery by SPE of plasma after PDMS sampling; higher = better extraction
CONDITIONS USED: pooled human plasma; extraction method: HLB SPE of plasma after PES; equilibration time (d): 3
MEASURE NAME: chemical recovery by SPE of plasma (%)

COMPOUND | VALUE OBSERVED
Oc1ccc(Cl)cc1 [4-Chlorophenol] | 66.4

[a] CCC(C)OC(=O)N1CCCCC1CCO (stereo not given) [Icaridin]
[b] O=S(=O)(O)c1nc2ccccc2s1 [2-Benzothiazolesulfonic acid]
[c] CCOC(=O)c1ccc(N(C)C)cc1 [Ethyl 4-(dimethylamino)benzoate]
[d] CN(C/C=C/C#CC(C)(C)C)Cc1cccc2ccccc12 [Terbinafine]
Task field, ranking: reported chemical recovery by SPE of plasma, descending order. Please express your ranking as an ordered list of the labels.
b, a, c, d

====

ASSAY PROTOCOL: chemical recovery by SPE of plasma after PDMS sampling; higher = better extraction
CONDITIONS USED: pooled human plasma; extraction method: HLB SPE of plasma after PES; equilibration time (d): 1
MEASURE NAME: chemical recovery by SPE of plasma (%)

Some compounds with recorded chemical recovery by SPE of plasma:
COMPOUND | VALUE OBSERVED
CCc1cccc(C)c1NC(=O)CS(=O)(=O)O | 37.4
O=C1CC2(CCCCC2)CN1 | 19.4
Clc1ccc2c(c1)CCc1cccnc1C2=C1CCNCC1 | 3.67
COc1cc(OC)nc(NC(=O)NS(=O)(=O)N(C)S(C)(=O)=O)n1 | 46.5
CCC(=C(c1ccc(O)cc1)c1ccc(OCCN(C)C)cc1)c1ccccc1 [4-Hydroxytamoxifen] | 13.5

[1] C1=Cc2ccccc2Nc2ccccc21
[2] Cc1cccc(C)c1N(Cn1cccn1)C(=O)C[S+]([O-])CC(=O)O (configuration not stated)
Could you tell me which of these two has the smaller chemical recovery by SPE of plasma figure? First: 1 Second: 2 Reply briefly: the label of your chosen item.
1

====

ASSAY PROTOCOL: chemical recovery from spiked human plasma; higher = better extraction
CONDITIONS USED: pooled human plasma; extraction method: SPE only (HLB 96-well), PES comparison experiment
MEASURE NAME: chemical recovery (%)

COMPOUND | chemical recovery (%)
CC[C@H](C)[C@H]1O[C@]2(CC[C@@H]1C)C[C@@H]1C[C@@H](C/C=C(\C)[C@@H](O[C@H]3C[C@H](OC)[C@@H](O[C@H]4C[C@H](OC)[C@@H](O)[C@H](C)O4)[C@H](C)O3)[C@@H](C)/C=C/C=C3\CO[C@@H]4[C@H](O)C(C)=C[C@@H](C(=O)O1)[C@]34O)O2 [Ivermectin B1a] | 16.6
CC(=O)OCC(=O)[C@@]1(O)CC[C@H]2[C@@H]3CCC4=CC(=O)CC[C@]4(C)[C@H]3[C@@H](O)C[C@@]21C [Hydrocortisonacetate] | 47.4
COCCc1ccc(OCC(O)CNC(C)C)cc1 (configuration not stated) [Metoprolol] | 44
COCC(C)N(C(=O)C(=O)O)c1c(C)csc1C (configuration not stated) [Dimethenamid OA] | 51.7
O=C(O)C(F)(F)C(F)(F)C(F)(F)C(F)(F)C(F)(F)C(F)(F)F [Perfluoroheptanoic acid] | 39.8
Oc1ccc(Cl)cc1 [4-Chlorophenol] | 60.1
NS(=O)(=O)C(F)(F)C(F)(F)C(F)(F)C(F)(F)C(F)(F)C(F)(F)C(F)(F)C(F)(F)F [Perfluorooctanesulfonamide] | 38.8

====

ASSAY PROTOCOL: chemical recovery from spiked human plasma; higher = better extraction
CONDITIONS USED: pooled human plasma; extraction method: SPE only (HLB 96-well)
MEASURE NAME: chemical recovery (%)

MOLECULE | MEASURE NAME | UNIT OF MEASUREMENT | VALUE OBSERVED
Cn1ccnc1S | chemical recovery | % | 0.483
CC(C)COC(=O)c1ccccc1C(=O)O [Mono-iso-butyl-phthalate] | chemical recovery | % | 44.7

[1] CCCCCCCCCCCCCC[N+](C)(C)Cc1ccccc1
[2] CN1CCC[C@H]1c1cccnc1
[3] CC(=O)C1(C)CC2=C(CCCC2(C)C)CC1C (stereo not given)
[4] O=P(O)(O)C(F)(F)C(F)(F)C(F)(F)C(F)(F)C(F)(F)C(F)(F)F
Kindly order the items shown according to chemical recovery, from the highest value down. Submit the labels in the order that the ranking request calls for.
1, 4, 3, 2

====

ASSAY PROTOCOL: chemical recovery from spiked human plasma; higher = better extraction
CONDITIONS USED: pooled human plasma; extraction method: SPE only (HLB 96-well)
MEASURE NAME: chemical recovery (%)

Previously resolved entries follow.
COMPOUND | MEASURE NAME | UNIT OF MEASUREMENT | VALUE OBSERVED
NCCc1ccccc1 | chemical recovery | % | 6.63
Cc1ccc2c(c1)c1cccc3ccc4cccc2c4c31 [10-Methylbenzo[e]pyrene] | chemical recovery | % | 0.0979
CCc1cc(C)cc(CC)c1-c1c(OC(=O)C(C)(C)C)n2n(c1=O)CCOCC2 | chemical recovery | % | 21.1
CCOC(=O)C(C#N)=C(c1ccccc1)c1ccccc1 | chemical recovery | % | 36.7

[1] O=S(=O)(O)CCNC1CCCCC1
[2] CN(C)CCC=C1c2ccccc2CCc2ccccc21
Just curious, which one has the larger chemical recovery reading, 1 or 2 ? Return value: the label identifying the chosen record.
2
(2: 39.4%, 1: 2.37%)

[1] CN1C(=O)CC[C@H]1c1cccnc1
[2] CN(Cc1cnc2nc(N)nc(N)c2n1)c1ccc(C(=O)N[C@@H](CCC(=O)O)C(=O)O)cc1 [Methotrexate]
[3] CN(C)c1ccncc1
[4] CCCCCCCC[N+](C)(C)C
Sort by chemical recovery, descending. Response format: the labels, sorted as the prompt asks.
2, 4, 1, 3

[A] O=C(O)COCCN1CCN(C(c2ccccc2)c2ccc(Cl)cc2)CC1 (centres undefined)
[B] O=P(O)(OCCC(F)(F)C(F)(F)C(F)(F)C(F)(F)C(F)(F)C(F)(F)F)OCCC(F)(F)C(F)(F)C(F)(F)C(F)(F)C(F)(F)C(F)(F)F [6.2-Fluorotelomerphosphate-diester]
[C] CC[C@H](C)C(=O)O[C@H]1C[C@H](O)C=C2C=C[C@H](C)[C@H](CC[C@@H](O)C[C@@H](O)CC(=O)O)[C@H]21
I would appreciate it if you could sort these 3 compounds by chemical recovery, starting from the smallest number. Form entry: labels listed in requested order.
B, C, A

====

ASSAY PROTOCOL: chemical recovery by SPE of plasma after PDMS sampling; higher = better extraction
CONDITIONS USED: pooled human plasma; extraction method: HLB SPE of plasma after PES; equilibration time (d): 3
MEASURE NAME: chemical recovery by SPE of plasma (%)

COMPOUND | UNIT OF MEASUREMENT | chemical recovery by SPE of plasma
CC(=O)N1CCN(c2ccc(OC[C@H]3CO[C@](Cn4ccnc4)(c4ccc(Cl)cc4Cl)O3)cc2)CC1 (racemic) [Ketoconazole] | % | 12.8
C[C@H]1C[C@@H]2[C@H]([C@@H](O)C[C@@]3(C)[C@H]2CC[C@]3(O)C(=O)CO)[C@@]2(C)C=CC(=O)C=C12 [6alpha Methylprednisolone] | % | 57.1
c1ccc2c(c1)c1cccc3ccc4cccc2c4c31 [Benzo(e)pyrene] | % | 1.37
Cc1cccc(C)c1N(Cn1cccn1)C(=O)CCl [Metazachlor] | % | 1.57
CC(C)C1(C)N=C(c2ncccc2C(=O)O)NC1=O (configuration not stated) [Imazapyr] | % | 53.1

[I] CN1CCCC(n2nc(Cc3ccc(Cl)cc3)c3ccccc3c2=O)CC1 (configuration not stated) [Azelastine]
[II] CCCCC(=O)O[C@]1(C(=O)CO)[C@@H](C)C[C@H]2[C@@H]3CCC4=CC(=O)C=C[C@]4(C)[C@@]3(F)[C@@H](O)C[C@@]21C [Betamethasone-17-valerate]
[III] Cc1cccc(Nc2ccncc2S(=O)(=O)NC(=O)NC(C)C)c1 [Torasemide]
[IV] CC(C)(C#N)c1cc(Cn2cncn2)cc(C(C)(C)C#N)c1 [Anastrozole]
Please list these compounds in decreasing order of chemical recovery by SPE of plasma. Would you mind listing the labels in the order requested?
III, II, IV, I
(III: 54%, II: 26.8%, IV: 9.48%, I: 1.27%)

====

ASSAY PROTOCOL: chemical recovery from spiked human plasma; higher = better extraction
CONDITIONS USED: pooled human plasma; extraction method: SPE only (HLB 96-well)
MEASURE NAME: chemical recovery (%)

MOLECULE | MEASURE NAME | VALUE OBSERVED
Cc1c(N)c(=O)n(-c2ccccc2)n1C [4-Aminoantipyrine] | chemical recovery | 8.59

[P] O=C(NC1CCCCC1)NC1CCCCC1
[Q] O=C1CCCC=CCCCCCCCCCC1
// which entry has the larger chemical recovery value, P or Q ? Reply briefly: the label of your chosen item.
P

[I] CNCCCN1c2ccccc2CCc2ccccc21
[II] CN[C@H]1CC[C@@H](c2ccc(Cl)c(Cl)c2)c2ccccc21
Sorting ascending by chemical recovery, which comes first: I or II ? Output the label that corresponds to your choice.
I
(I: 35.8%, II: 71.9%)

[P] CCCCc1ncc(/C=C(\Cc2cccs2)C(=O)O)n1Cc1ccc(C(=O)O)cc1
[Q] COCCOCCOC
Would you kindly point out which of P and Q has the smaller chemical recovery figure? // return label of chosen record
Q

[1] CCNc1nc(NC(C)(C)C)[nH]c(=O)n1 [Terbuthylazine-2-hydroxy]
[2] CC(=O)N1CCOCC1
Select the item whose chemical recovery value is smaller, choosing between 1 and 2 . API: response body contains the label of the selected item.
2
(2: 3.35%, 1: 35.5%)

[1] NC(=O)N1c2ccccc2C=Cc2cc(O)ccc21 [2-Hydroxycarbamazepine]
[2] CC1CC(OC(=O)c2ccccc2O)CC(C)(C)C1 (configuration not stated) [Homosalate]
[3] Cc1ncc([N+](=O)[O-])n1CCO
[4] CCCCCCCCc1cccc(Nc2ccccc2)c1CCCCCCCC
Descending sort on chemical recovery required. The labels, placed in the requested order, form the answer.
1, 3, 4, 2
(1: 44.7%, 3: 21.2%, 4: 7.45%, 2: 0.169%)
